The following are reported IC50 results, target or system PDE1C (Homo sapiens).
MEASURED_ENDPOINT: IC50 (nM)

COc1ccc2c(NC3CCOC3)ncnc2c1OC (single isomer, unassigned) [1 Stereoisomer 2] :: 1200
CCCN(c1ncnc2c(OC)c(OC)ccc12)[C@H]1CCOC1 :: 540

I = COc1ccc2c(N(C)C3CCOC3C)ncnc2c1OC (single isomer, unassigned) [22 Stereoisomer 1]
II = COc1ccc2c(NC3(C)CCOC3C)ncnc2c1OC (single isomer, unassigned) [5 Stereoisomer 4]
Lab note: check whether I or II shows the higher recorded IC50. Lab log: write the label of the selected item as the result.
II
